target: GSK3A (NanoLuc fusion, HEK293 cells) (Homo sapiens, UniProt P49840); assay: NanoBRET target engagement, tracer displacement, intact cells
Sequence (P49840 2-483): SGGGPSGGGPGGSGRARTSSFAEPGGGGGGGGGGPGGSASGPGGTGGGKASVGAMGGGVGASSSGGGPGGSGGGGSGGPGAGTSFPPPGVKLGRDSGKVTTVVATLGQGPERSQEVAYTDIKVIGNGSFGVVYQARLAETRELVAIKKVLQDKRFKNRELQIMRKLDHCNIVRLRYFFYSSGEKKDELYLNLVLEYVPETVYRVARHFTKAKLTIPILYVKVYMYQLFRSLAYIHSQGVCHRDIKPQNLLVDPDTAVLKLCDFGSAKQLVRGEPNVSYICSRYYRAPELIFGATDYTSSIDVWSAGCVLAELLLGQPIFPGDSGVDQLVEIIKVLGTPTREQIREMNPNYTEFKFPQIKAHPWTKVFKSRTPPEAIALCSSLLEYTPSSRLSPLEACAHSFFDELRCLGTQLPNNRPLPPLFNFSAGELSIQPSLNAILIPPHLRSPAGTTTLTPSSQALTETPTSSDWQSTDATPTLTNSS
PROPERTY MEASURED: EC50 (µM)
Response body: numeric value in µM, unit text excluded.

Asked: Using the record for O=C(O)c1ccc(-c2[nH]c3cc(F)cc4c3c2CCNC4=O)cc1 , report its EC50.
Given back: 15
